- Tested on: HTT mRNA
- Method notes: Splicing RT-qPCR assay, HTT canonical (CJ) and alternative (AJ) junction mRNA
- Format: cell-based, human
- Measurement parameters: Homo sapiens, A673 or K562 cells, 24 hours compound treatment, read-out: HTT AJ (AC50, increase in alternative junction mRNA)
Measure: AC50

| Compound | AC50 |
| --- | --- |
| Cc1cn2cc(NC(=O)c3ccc(N4CCNCC4)c4cn(C)nc34)cc(Cl)c2n1 [Compound 269] | 100 to 1000 nM |
| Cc1cn2cc(NC(=O)c3ccc(N4CC(C)(C)NC(C)(C)C4)c4cn(C)nc34)cc(F)c2n1 [Compound 274] | > 10000 nM |
| Cc1cn2cc(NC(=O)c3c(F)cc(N4CC[C@@H](NC5(C#N)CC5)C4)c4cn(C)nc34)cc(F)c2n1 [Compound 587] | 100 to 1000 nM |

Query block: Give its AC50 value. Item: CCn1cc2c(OC3CCNC3)ccc(C(=O)Nc3cc(F)c4nc(C)cn4c3)c2n1 (stereo not shown) [Compound 498]
Result block: 1000 to 10000 nM

----------
- Tested on: HTT mRNA
- Method notes: Splicing RT-qPCR assay, HTT canonical (CJ) and alternative (AJ) junction mRNA
- Assay type: cell-based, human
- Measurement parameters: Homo sapiens, A673 or K562 cells, 24 hours compound treatment, read-out: HTT AJ (AC50, increase in alternative junction mRNA)
Where a name gives a salt, the structure may show the parent alone.
The reader will find reported AC50 values listed item by item below.

# count of solved cases: 2
| Compound | AC50 |
| --- | --- |
| CN[C@@H]1CCN(c2ccc(C(=O)Nc3cn4cc(C)nc4c(Cl)n3)c3nn(C)cc23)C1 | > 10 µM |
| Cc1cn2cc(NC(=O)c3ccc(N4CC[C@@H](NC5(C)CC5)C4)c4cn(C)nc34)cc(F)c2n1 | 1 to 10 µM |

Query block: Give its AC50 value. Item: COc1nc(NC(=O)c2ccc(N3CCNCC3)c3cn(C)nc23)cc2oc(C)nc12
Result block: 0.1 to 1 µM

Query block: Note, next up: CCn1cc2c(N3CCC(NC4CCC4)CC3)ccc(C(=O)Nc3cc(F)c4nc(C)cn4c3)c2n1
Result block: 1 to 10 µM

Query block: Note, next up: Cc1cn2cc(NC(=O)c3ccc(N4CCC5(CCN5)CC4)c4cn(C)nc34)cc(F)c2n1 [Compound 301, trifluoroacetic acid salt]
Result block: 0.1 to 1 µM

Query block: Note, next up: CNC1CCN(c2ccc(C(=O)Nc3cn4cc(C)nc4c(OC)n3)c3nn(CCOC)cc23)C1 (stereo not drawn)
Result block: > 10 µM

Query block: Note, next up: Cc1cn2cc(NC(=O)c3ccc(N4CC[C@@H](NCc5ncccn5)C4)c4cn(C)nc34)cc(F)c2n1
Result block: > 10 µM

Query block: Note, next up: Cc1cn2cc(NC(=O)c3ccc(N4CCC(C)(NC(C)C)C4)c4cn(C)nc34)cc(F)c2n1 (stereo not drawn)
Result block: > 10 µM

----------
The reader will find reported IC50 values listed item by item below.
- System: Target C mRNA
- Method notes: Splicing RT-qPCR gene panel, Target C canonical junction (CJ) mRNA
- Format: cell-based, human
- Measurement parameters: Homo sapiens, Tables 4A/4B, read-out: Target C (IC50, decrease in CJ mRNA, gene panel)

# count of solved cases: 6
| Molecule | Measure | Result |
| --- | --- | --- |
| Cc1cn2cc(NC(=O)c3ccc(N4CCNCC4)c4cn(C)nc34)c(=O)n(C)c2n1 | IC50 | > 10 µM |
| Cc1cn2cc(NC(=O)c3c(F)cc(N4CCNCC4)c4cn(C)nc34)cc(F)c2n1 | IC50 | < 0.1 µM |
| Cc1nnc2n1CC(NC(=O)c1ccc(N3CCNCC3)c3cn(C)nc13)CC2 (centres unmarked) | IC50 | > 10 µM |
| Cc1cn2cc(NC(=O)c3cnc(N4CCC(NC5CC5)C4)c4cn(C)nc34)cc(F)c2n1 (centres unmarked) | IC50 | < 0.1 µM |
| Cc1cn2nc(NC(=O)c3ccc(N4CCNCC4)c4cc(C)oc34)cc(C)c2n1 | IC50 | 1 to 10 µM |
| Cc1cn2cc(NC(=O)c3ccc(N4C[C@H]5CC[C@@H](C4)N5)c4cn(C)nc34)cc(Cl)c2n1 | IC50 | 1 to 10 µM |

Let us move to another entry and its IC50.
Query block: Give its IC50 value. Item: Cc1cn2cc(NC(=O)c3ccc(N4CCN(C)CC4)c4cc(C)oc34)cc(F)c2n1
Result block: 1 to 10 µM

----------
- Test system: HTT mRNA
- Method notes: Splicing RT-qPCR assay, HTT canonical (CJ) and alternative (AJ) junction mRNA
- Type: cell-based, human
- Measurement parameters: Homo sapiens, A673 or K562 cells, 24 hours compound treatment, read-out: HTT AJ (AC50, increase in alternative junction mRNA)
The reader will find reported AC50 values listed item by item below.

| Compound | Assayed target | Result |
| --- | --- | --- |
| CCn1cc2c(OC3CCNCC3)ccc(C(=O)Nc3cc(F)c4nc(C)cn4c3)c2n1 | HTT mRNA | 1 to 10 µM |
| CCn1cc2c(N3CCN(C)CC3)ccc(C(=O)Nc3cc(F)c4nc(C)cn4c3)c2n1 | HTT mRNA | 1 to 10 µM |
| Cc1cn2cc(NC(=O)c3ccc(N4C[C@@H](C)N[C@@H](C)C4)c4cn(C)nc34)nc(C)c2n1 | HTT mRNA | > 10 µM |
| CCn1cc2c(N3CC4(CCNCC4)C3)ccc(C(=O)Nc3cc(F)c4nc(C)cn4c3)c2n1 | HTT mRNA | > 10 µM |
| Cc1cn2cc(NC(=O)c3ccc(N4CCNC(C)(C)C4)c4cc(C)oc34)cc(F)c2n1 | HTT mRNA | 1 to 10 µM |

Query block: Give its AC50 value. Item: Cc1cn2cc(NC(=O)c3ccc(N4CC[C@@H](NC5CC5)C4)c4cn(C)nc34)cc(F)c2n1
Result block: 0.1 to 1 µM

Query block: Note, next up: Cc1cn2cc(NC(=O)c3ccc(N4CCC(NCCO)CC4)c4cn(C)nc34)cc(F)c2n1
Result block: 0.1 to 1 µM

Query block: Note, next up: CCn1cc2c(N3CC[C@H](NC)C3)ccc(C(=O)Nc3cc(F)c4nc(C)cn4c3)c2n1
Result block: 1 to 10 µM

Query block: Note, next up: CCn1cc2c(N3C[C@H](F)[C@H](NC)C3)ccc(C(=O)Nc3cc(F)c4nc(C)cn4c3)c2n1
Result block: > 10 µM

Query block: Note, next up: CN[C@H]1CCN(c2ccc(C(=O)Nc3cn4cc(C)nc4c(OC)n3)c3nn(C)cc23)C1
Result block: > 10 µM

Query block: Note, next up: CCn1cc2c(N3C[C@H](C)N[C@@H](C)C3)ccc(C(=O)Nc3cc(F)c4nc(C)cn4c3)c2n1
Result block: > 10 µM

Query block: Note, next up: Cc1cn2cc(NC(=O)c3ccc(N4CCNCC4)c4oc(C)nc34)cc(F)c2n1
Result block: < 0.1 µM

Query block: Note, next up: Cc1cn2nc(-c3ccc(C(=O)NC4CCNCC4)c4nn(C)cc34)cc(C)c2n1
Result block: 1 to 10 µM

Query block: Note, next up: Cn1cc2c(N3CCNCC3)ccc(C(=O)Nc3cn[nH]c3)c2n1
Result block: > 10 µM

Query block: Note, next up: Cc1nnc2n1CC(NC(=O)c1ccc(N3CCNCC3)c3cn(C)nc13)CC2 (stereo not shown)
Result block: > 10 µM

Query block: Note, next up: Cc1cn2nc(NC(=O)c3ccc(C4CCNCC4)c4ccoc34)cc(C)c2n1
Result block: > 10 µM

----------
The reader will find reported pIC50 values listed item by item below.
- Tested on: MYB mRNA
- Method notes: Splicing RT-qPCR assay, MYB canonical (CJ) and alternative (AJ) junction mRNA
- Assay type: cell-based, human
- Measurement parameters: Homo sapiens, 24 h, A673 or K562 cells, 24 hours compound treatment, RT-qPCR; read-out: MYB CJ (IC50, decrease in canonical junction mRNA)
pIC50: −log10 of the molar value.

Query block: Give its pIC50 value. Item: Cc1cn2cc(NC(=O)c3ccc(N4CCN5CCCC5C4)c4cc(C)oc34)cc(F)c2n1 (stereo not shown)
Result block: 6.00 to 7.00

Query block: Note, next up: CCNC1CCN(c2ccc(C(=O)Nc3cc(F)c4nc(C)cn4c3)c3nn(CCOC)cc23)C1 (stereo not shown)
Result block: > 7.00

Query block: Note, next up: Cc1cn2cc(NC(=O)c3ccc(N4CCC5(CCN5)C4)c4cn(C)nc34)cc(F)c2n1 (stereo not shown)
Result block: 6.00 to 7.00

Query block: Note, next up: Cc1cc(NC(=O)c2ccc(N3CCNCC3)c3cn(C)nc23)c(O)c2cn(C)nc12
Result block: < 5.00

Query block: Note, next up: Cc1cn2cc(NC(=O)c3ccc(N4CCC(NC5(CF)CC5)C4)c4cn(C)nc34)cc(F)c2n1 (stereo not shown)
Result block: > 7.00

These measurements were taken from patent US20250154169A1.
